- Test system: Mycobacterium tuberculosis
- assay-remarks: Cornell M. t heat shock assay; further: in the data most compounds retested in dose-response had high values
- Type: functional, organism-based
- Set-up: dose or concentration left out as unconfirmed
Hit rate of the full screen: of about 69,000 compounds, about 950 (1.4%) showed an effect of 50% or more. For the sample, strong results were picked, then their nearest neighbours and some compounds at random.
// reported Percent Effect for each item listed
quantity: Percent Effect (%)

compound: O=C(NCCc1cccs1)[C@H]1CO[C@H]2CCN(C3CCC3)C[C@H]2C1.O=C(O)C(F)(F)F
output-unit: %
observed: 6.34
//
compound: O=C(NCCc1cccs1)[C@H]1CO[C@H]2CCN(CC3CC3)C[C@H]2C1.O=C(O)C(F)(F)F
output-unit: %
observed: 1.069
//
compound: Cc1cnn(CC2CCCN2CCc2nc3ccccc3c(=O)[nH]2)c1 (stereo not given)
output-unit: %
observed: 98.35
//
compound: O=c1[nH]c(CCN2CCCC2Cn2cncn2)nc2ccccc12 (stereo not given)
output-unit: %
observed: 48.51
//
compound: COCCNC(=O)[C@H]1CO[C@H]2CCN(Cc3cccs3)C[C@H]2C1
output-unit: %
observed: 78.89

* * *

- Tested on: Mycobacterium tuberculosis
- assay-remarks: Cornell M. t heat shock assay; further: in the data most compounds retested in dose-response had high values
- Assay type: functional, organism-based
- Design: dose or concentration left out as unconfirmed
In all, about 69,000 compounds went through this assay and about 950 (1.4%) showed an effect of 50% or more. Only a selection was taken, and strong results are over-represented in it overall.
Recorded Percent Effect values for a group of compounds are listed next.
quantity: Percent Effect (%)

compound: O=C(O)C(F)(F)F.O=C1C[C@H]2[C@H](CCN2Cc2ccccn2)N1CC1CC1
measured-on: Mycobacterium tuberculosis
quantity: Percent Effect
observed: -8.238
--
compound: O=C(O)C(F)(F)F.O=C(O)C(F)(F)F.c1cnn(Cc2nnc3n2CCCN(Cc2ccsc2)C3)c1
measured-on: Mycobacterium tuberculosis
quantity: Percent Effect
observed: -42.35
--
compound: O=C(O)C(F)(F)F.O=C1[C@H]2CN(CC3CC3)C[C@H]2CN1c1ccsc1
measured-on: Mycobacterium tuberculosis
quantity: Percent Effect
observed: 20.81
--
compound: O=C(O)C(F)(F)F.O=C(O)C(F)(F)F.c1cnc(N2CCC3(COCCN(CC4CCOCC4)C3)C2)nc1 (centres undefined)
measured-on: Mycobacterium tuberculosis
quantity: Percent Effect
observed: -23.85
--
compound: COCCN(Cc1cc(O)nc2ccccc12)C(=O)NC(C)C
measured-on: Mycobacterium tuberculosis
quantity: Percent Effect
observed: 104.4
--
compound: CC(C)NC(=O)N(Cc1cc(O)nc2ccccc12)C(C)C
measured-on: Mycobacterium tuberculosis
quantity: Percent Effect
observed: -8.593
--
compound: CNC(=O)[C@H]1C[C@@H]2CCN(c3nnc(C)s3)C[C@@H]2O1.O=C(O)C(F)(F)F
measured-on: Mycobacterium tuberculosis
quantity: Percent Effect
observed: 0.7881
--
compound: COc1ccc(CN(C)CC(O)COCc2ccccc2Cl)c(OC)c1.O=C(O)C(=O)O (centres undefined)
measured-on: Mycobacterium tuberculosis
quantity: Percent Effect
observed: 10.76
--
compound: COCC1CN(CC2CC2)Cc2nccn2C1.O=C(O)C(F)(F)F (centres undefined)
measured-on: Mycobacterium tuberculosis
quantity: Percent Effect
observed: -7.797

* * *

Recorded measurements of Percent Effect, one per entry
- Tested on: Mycobacterium tuberculosis
- assay-remarks: Cornell M. t heat shock assay; further: in the data most compounds retested in dose-response had high values
- Assay type: functional, organism-based
- Parameters: dose or concentration left out as unconfirmed
Hit rate of the full screen: of about 69,000 compounds, about 950 (1.4%) showed an effect of 50% or more. Shown is part of a subset that was picked to be rich in strong results.

compound: COCCN1C(=O)[C@H]2CC[C@@H]1CN(C(=O)CCc1n[nH]c(C)c1C)C2
measured-on: Mycobacterium tuberculosis
output-unit: %
Percent Effect: 8.165

compound: CCN(Cc1noc(C)n1)C(=O)CCn1c(C)cc2ccccc21
measured-on: Mycobacterium tuberculosis
output-unit: %
Percent Effect: 72.72

compound: CCc1noc(CNc2c(F)cccc2-n2cccn2)n1
measured-on: Mycobacterium tuberculosis
output-unit: %
Percent Effect: -3.038

compound: Cn1c(CNc2c(F)cccc2-n2cccn2)cc(=O)n(C)c1=O
measured-on: Mycobacterium tuberculosis
output-unit: %
Percent Effect: 6.656

compound: CC(C)(C)c1nnc(CNc2c(F)cccc2-n2cccn2)o1
measured-on: Mycobacterium tuberculosis
output-unit: %
Percent Effect: 0.6342

compound: CCN(Cc1nc(COC)no1)C(=O)CCn1c(C)cc2ccccc21
measured-on: Mycobacterium tuberculosis
output-unit: %
Percent Effect: 35.71

compound: O=C(O)C(F)(F)F.O=C(O)C(F)(F)F.O=C(O)C(F)(F)F.O=C1C[C@H]2[C@@H](CCN2Cc2ccccn2)N1Cc1cccnc1
measured-on: Mycobacterium tuberculosis
output-unit: %
Percent Effect: -6.498

compound: Cc1cccc(N2CCC3(CCCN(C(=O)c4cccnc4)C3)C2)n1.O=C(O)C(F)(F)F.O=C(O)C(F)(F)F (stereo not given)
measured-on: Mycobacterium tuberculosis
output-unit: %
Percent Effect: -32.42

compound: Cc1ncc2c(n1)C1(CCN(C(=O)C3CC3)CC1)OCC2.Cl
measured-on: Mycobacterium tuberculosis
output-unit: %
Percent Effect: 6.327

compound: CCN(Cc1ccncc1)C(=O)CCn1c(C)cc2ccccc21
measured-on: Mycobacterium tuberculosis
output-unit: %
Percent Effect: 10.06
